- Test system: MOLT-4
- protocol.description: cells
- measurement.setup: Homo sapiens, MOLT-4, 72 h
- Description: Antiproliferative activity against human MOLT-4 cells assessed as inhibition of cell growth incubated for 72 hrs by CCK8 assay
pIC50: −log10 of the molar value.
Decide using pIC50: a value greater than or equal to 6 is Condition met, a smaller one is Condition not met.

In [3]: df
Out[3]:
                           structure_string     category_label
0  CN1CCN(c2ccc(Nc3ncc(F)c(Nc4ccccc4C(=O)NN)n3)cc2)CC1      Condition met
1  C=CC(=O)N1CCC[C@@H](n2nc(-c3ccc(Oc4ccccc4)cc3)c3c(N)ncnc32)C1  Condition not met
2  CN1CCN(c2ccc(Nc3ncc(F)c(Nc4ccccc4C(=O)NN)n3)cc2F)CC1      Condition met
3  CNC(=O)c1cc(Oc2ccc(NC(=O)Nc3ccc(Cl)c(C(F)(F)F)c3)cc2)ccn1  Condition not met
4  NNC(=O)c1ccccc1Nc1nc(Nc2ccc(N3CCOCC3)cc2)ncc1F      Condition met

Numbers sourced from ChEMBL document CHEMBL5385861.
